- Study System: benzodiazepine site of the GABA-A receptor
- Protocol Summary: Benzodiazepine Receptor Binding Assay (inhibition of 3H-flunitrazepam binding)
- Settings: Table 4; ca. 3 nM 3H-flunitrazepam
pIC50: −log10 of the molar value.
Measured Quantity: pIC50

Smiles Code	Lt Gt Eq	Measured Value
O=C(Nc1ccncc1)c1c(=O)ccn2c1[nH]c1ccccc12	=	6.59
O=C(Nc1c(F)cccc1F)c1c(=O)ccn2c1[nH]c1ccccc12	>	9.00
O=C(Nc1ccccc1F)c1c(=O)ccn2c1[nH]c1ccccc12	=	9.64
O=C(Nc1ccccc1)c1c(=O)ccn2c1[nH]c1ccccc12	=	7.62
Cn1c2ccccc2n2ccc(=O)c(C(=O)Nc3ccccc3)c12	=	7.35

* * *

- Study System: benzodiazepine site of the GABA-A receptor
- Protocol Summary: Benzodiazepine Receptor Binding Assay (inhibition of 3H-flunitrazepam binding)
- Settings: Table 1; ca. 3 nM 3H-flunitrazepam, 25° C., 10-20 min; >10,000 = not active
Item-by-item account of IC50

Compound	Study System	IC50
O=C1CCN2C(=C1C(=O)Nc1ccc3[nH]ncc3c1)Nc1ccccc12 [compound 50]	benzodiazepine site of the GABA-A receptor	96 nM
O=C1CCN2C(=C1C(=O)Nc1ccc(Br)cc1)Nc1ccccc12 [compound 44]	benzodiazepine site of the GABA-A receptor	130 nM
O=C1CCN2C(=C1C(=O)Nc1c(F)cc(F)cc1Br)Nc1ccccc12 [compound 103]	benzodiazepine site of the GABA-A receptor	1200 nM
O=C1CCN2C(=C1C(=O)Nc1ccccc1F)Nc1cc(Cl)ccc12 [compound 113]	benzodiazepine site of the GABA-A receptor	5 nM
Cc1cc(N(C)C)ccc1NC(=O)C1=C2Nc3ccccc3N2CCC1=O [compound 85]	benzodiazepine site of the GABA-A receptor	4000 nM
Cc1cc(NC(=O)C2=C3Nc4ccccc4N3CCC2=O)ccn1 [compound 100]	benzodiazepine site of the GABA-A receptor	820 nM
O=C1CCN2C(=C1C(=O)Nc1cccnc1Cl)Nc1ccccc12 [compound 70]	benzodiazepine site of the GABA-A receptor	68 nM
O=C1CCN2C(=C1C(=O)Nc1cccc(F)c1)Nc1ccccc12 [compound 95]	benzodiazepine site of the GABA-A receptor	160 nM
CSc1cc(N(C)C)ccc1NC(=O)C1=C2Nc3ccccc3N2CCC1=O [compound 79]	benzodiazepine site of the GABA-A receptor	660 nM
Cc1cccc2c1NC1=C(C(=O)Nc3ccccc3)C(=O)CCN12 [compound 89]	benzodiazepine site of the GABA-A receptor	10 nM
O=C1CCN2C(=C1C(=O)Nc1ccccc1)Nc1ccc(Cl)cc12 [compound 84]	benzodiazepine site of the GABA-A receptor	170 nM
O=C1CCN2C(=C1C(=O)NCc1ccccc1)Nc1ccccc12 [compound 32]	benzodiazepine site of the GABA-A receptor	38 nM
Cc1cccc2c1NC1=C(C(=O)Nc3ccccc3F)C(=O)CCN12 [compound 94]	benzodiazepine site of the GABA-A receptor	96 nM
COc1ccc2c(c1)NC1=C(C(=O)Nc3ccncc3)C(=O)CCN12 [compound 57]	benzodiazepine site of the GABA-A receptor	500 nM
Nc1ccc(NC(=O)C2=C3Nc4ccccc4N3CCC2=O)cc1 [compound 18]	benzodiazepine site of the GABA-A receptor	13000 nM
Cc1cnccc1NC(=O)C1=C2Nc3ccccc3N2CCC1=O [compound 77]	benzodiazepine site of the GABA-A receptor	7100 nM
COc1ccc(NC(=O)C2=C3Nc4ccccc4N3CCC2=O)cc1OC [compound 8]	benzodiazepine site of the GABA-A receptor	32 nM
O=C1CCN2C(=C1C(=O)Nc1ncccn1)Nc1ccccc12 [compound 46]	benzodiazepine site of the GABA-A receptor	54 nM
O=C1CCN2C(=C1C(=O)Nc1ccc3ncccc3c1)Nc1ccccc12 [compound 41]	benzodiazepine site of the GABA-A receptor	130 nM

* * *

- Protocol Summary: Suppression of anxiety (punished licking, conflict test) in the adult male rat
- Format: in vivo, male rats
- Settings: Table 1, ip, minimum effective dose, >10 = active dose not determined, read-out: Conflict (ip) MED

Smiles Code	Lt Gt Eq	minimal effective dose, mg/kg
O=C1CCN2C(=C1C(=O)Nc1ccncc1)Nc1ccccc12	=	3
O=C1CCN2C(=C1C(=O)Nc1ccc(F)cc1)Nc1ccccc12	=	10
O=C1CCN2C(=C1C(=O)Nc1cccc(Cl)c1)Nc1ccccc12	>	10
O=C1CCN2C(=C1C(=O)Nc1ncccn1)Nc1ccccc12	=	10
Cc1cc(NC(=O)C2=C3Nc4ccccc4N3CCC2=O)c2ccccc2n1	>	10
Cc1cc(N(C)C)ccc1NC(=O)C1=C2Nc3ccccc3N2CCC1=O	>	10
O=C1CCN2C(=C1C(=O)Nc1nnc(C(F)(F)F)s1)Nc1ccccc12	>	10
Cc1cnccc1NC(=O)C1=C2Nc3ccccc3N2CCC1=O	>	10
O=C1CCN2C(=C1C(=O)Nc1c(F)cc(F)cc1F)Nc1cc(F)ccc12	=	0.3

* * *

- Protocol Summary: Suppression of metrazol-induced convulsions
- Assay type: in vivo, male CD1 mice
- Settings: Mus musculus, 0.5 h; Table 1; ip; mice; clonic convulsions after sc CD90 metrazol; >30 = active dose not determined; read-out: Metrazol (ip) ED50

Smiles Code	ED50
O=C1CCN2C(=C1C(=O)Nc1ccc3cn[nH]c3c1)Nc1ccccc12	> 30 mg/kg
Cc1ccccc1NC(=O)C1=C2Nc3ccccc3N2CCC1=O	> 30 mg/kg
O=C1CCN2C(=C1C(=O)Nc1ccncc1Cl)Nc1ccccc12	1 to 10 mg/kg
O=C1CCN2C(=C1C(=O)Nc1ccncc1)Nc1ccccc12	2 mg/kg
Nc1ccc(NC(=O)C2=C3Nc4ccccc4N3CCC2=O)cc1	3 mg/kg

* * *

- Protocol Summary: Suppression of anxiety (punished licking, conflict test) in the adult male rat
- Format: in vivo, male rats
- Settings: Table 1, ip, minimum effective dose, >10 = active dose not determined, read-out: Conflict (ip) MED
Item-by-item account of minimal effective dose

Smiles Code	minimal effective dose
Cc1cccc2c1NC1=C(C(=O)Nc3ccccc3)C(=O)CCN12	> 10 mg/kg
CNC(=O)C1=C2Nc3ccccc3N2CCC1=O	> 10 mg/kg
O=C1CCN2C(=C1C(=O)Nc1ccncn1)Nc1ccccc12	10 mg/kg
O=C1CCN2C(=C1C(=O)NC1CCNCC1)Nc1ccccc12	> 10 mg/kg
O=C1CCN2C(=C1C(=O)Nc1ccc3[nH]ncc3c1)Nc1ccccc12	10 mg/kg
O=C1CCN2C(=C1C(=O)Nc1ccnc(Cl)c1)Nc1ccccc12	> 10 mg/kg
Cc1cccc(C)c1NC(=O)C1=C2Nc3ccccc3N2CCC1=O	> 10 mg/kg
Cc1ccccc1NC(=O)C1=C2Nc3ccccc3N2CCC1=O	10 mg/kg
COc1cccc(NC(=O)C2=C3Nc4ccccc4N3CCC2=O)c1	5 mg/kg
COc1ccc2c(c1)NC1=C(C(=O)Nc3ccccc3)C(=O)CCN12	> 10 mg/kg
COc1ccccc1NC(=O)C1=C2Nc3ccccc3N2CCC1=O	> 10 mg/kg
O=C1CCN2C(=C1C(=O)Nc1c(F)c(F)nc(F)c1F)Nc1ccccc12	> 10 mg/kg
Cc1cc(NC(=O)C2=C3Nc4ccccc4N3CCC2=O)on1	> 10 mg/kg
O=C1CCN2C(=C1C(=O)Nc1ccc3cn[nH]c3c1)Nc1ccccc12	10 mg/kg
C[n+]1ccc(NC(=O)C2=C3Nc4ccccc4N3CCC2=O)cc1	> 10 mg/kg
O=C1CCN2C(=C1C(=O)Nc1cccc3ccoc13)Nc1ccccc12	10 mg/kg
O=C1CCN2C(=C1C(=O)Nc1cccc3cnccc13)Nc1ccccc12	> 10 mg/kg
CCN(CC)c1ccc(NC(=O)C2=C3Nc4ccccc4N3CCC2=O)cc1	> 10 mg/kg
O=C1CCN2C(=C1C(=O)Nc1ccccc1F)Nc1cc(Cl)ccc12	< 10 mg/kg

* * *

- Protocol Summary: Suppression of metrazol-induced convulsions
- Type: in vivo, male CD1 mice
- Settings: Mus musculus, 0.5 h; Table 1; ip; mice; clonic convulsions after sc CD90 metrazol; >30 = active dose not determined; read-out: Metrazol (ip) ED50
Measured Quantity: ED50

Smiles Code	Measured Quantity	Measured Value
O=C1CCN2C(=C1C(=O)NCc1ccncc1)Nc1ccccc12	ED50	> 10 mg/kg
COc1ccc2c(c1)NC1=C(C(=O)Nc3ccccc3)C(=O)CCN12	ED50	3 mg/kg
COc1ccccc1NC(=O)C1=C2Nc3ccccc3N2CCC1=O	ED50	> 10 mg/kg
O=C1CCN2C(=C1C(=O)Nc1ncncn1)Nc1ccccc12	ED50	> 10 mg/kg
O=C1CCN2C(=C1C(=O)Nc1ccc3ncccc3c1)Nc1ccccc12	ED50	> 30 mg/kg
O=C1CCN2C(=C1C(=O)Nc1cccnc1F)Nc1ccccc12	ED50	2 mg/kg
O=C1CCN2C(=C1C(=O)Nc1nncs1)Nc1ccccc12	ED50	> 10 mg/kg
Cc1cc(NC(=O)C2=C3Nc4ccccc4N3CCC2=O)c2ccccc2n1	ED50	10 mg/kg
O=C1CCN2C(=C1C(=O)Nc1ccncc1)Nc1cc(F)ccc12	ED50	3 mg/kg
